Target: Neu5Ac(a2-3)Gal(b1-4)[Fuc(a1-3)]GlcNAc(b1-3)GalNAc
Assay: glycan array binding signal (z-score within array); higher = stronger binding
Conditions: glycan notation: IUPAC condensed, linker removed
This is one part of a sample in which the strongest signals are shown more often than they occur.
Field: glycan array binding signal (z-score). Provide a value for each of the binders that follow.
Write no unit; give the number alone.

(Q) Please list glycan array binding signal (z-score) recorded for the binder SBD (Rhizopus oryzae), P07683 (protein) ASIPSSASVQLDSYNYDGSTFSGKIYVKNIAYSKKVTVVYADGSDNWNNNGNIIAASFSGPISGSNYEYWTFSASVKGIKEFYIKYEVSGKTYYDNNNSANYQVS
(A) 3.37

(Q) Write down glycan array binding signal (z-score) measured for item RbmA (Vibrio cholerae), A0A2H4NFB8 (protein) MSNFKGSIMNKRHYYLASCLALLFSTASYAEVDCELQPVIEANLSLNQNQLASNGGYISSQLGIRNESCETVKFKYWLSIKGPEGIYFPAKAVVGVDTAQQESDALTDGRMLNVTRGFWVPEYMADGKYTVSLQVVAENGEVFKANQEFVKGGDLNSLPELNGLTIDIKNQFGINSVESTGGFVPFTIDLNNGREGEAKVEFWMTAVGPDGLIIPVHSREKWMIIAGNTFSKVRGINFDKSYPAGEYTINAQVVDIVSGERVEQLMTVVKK
(A) 3.93

(Q) Specify reported glycan array binding signal (z-score) for the binder shown: Ecp6 (Cladosporium fulvum), B3VBK9 (protein) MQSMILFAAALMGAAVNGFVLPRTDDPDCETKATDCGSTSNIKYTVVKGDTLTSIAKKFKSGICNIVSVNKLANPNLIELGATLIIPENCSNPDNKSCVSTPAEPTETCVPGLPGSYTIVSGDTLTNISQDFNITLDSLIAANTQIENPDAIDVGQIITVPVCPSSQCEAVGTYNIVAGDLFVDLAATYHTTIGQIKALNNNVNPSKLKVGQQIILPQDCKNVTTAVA
(A) -0.004

(Q) Consider the binder Epa21 (Candida glabrata) (protein) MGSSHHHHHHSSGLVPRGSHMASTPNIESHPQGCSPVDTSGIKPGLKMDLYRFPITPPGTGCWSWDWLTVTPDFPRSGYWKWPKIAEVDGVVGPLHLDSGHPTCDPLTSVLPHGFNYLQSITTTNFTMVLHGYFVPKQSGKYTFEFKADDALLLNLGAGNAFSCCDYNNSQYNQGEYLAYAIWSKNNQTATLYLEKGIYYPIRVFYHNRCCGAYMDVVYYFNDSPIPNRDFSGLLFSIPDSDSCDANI and give its recorded glycan array binding signal (z-score).
(A) 1.87

(Q) Give the value of glycan array binding signal (z-score) reported for the following: BIp1-His (Cryptococcus neoformans) (protein) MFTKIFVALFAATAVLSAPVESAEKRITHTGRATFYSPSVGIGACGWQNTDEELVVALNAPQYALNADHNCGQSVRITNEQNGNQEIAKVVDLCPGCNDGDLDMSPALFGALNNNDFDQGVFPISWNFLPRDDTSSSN
(A) 1.32

(Q) Give reported glycan array binding signal (z-score) value for HA-00510 (Pseudomonas aeruginosa), Q02V39_PSEAB (protein) GVPIVNIATPNGAGLSNNHFRDYNVGANGLILNNATGKTQGTQLGGIILGNPNLKGQAAQVILNQVTGGNRSTLAGYTEVAGQSARVIVANPHGITCQGCGFINTPRATLTTGKPIMDGQRLERFQVDGGDIVVEGAELNVGNLEQFDLITRSAKLNAKLYAKNLNIVTGRNDVQADSLQATPRAADGSEKPQLAIDSSALGGMYAGAIRLVGTEQGVGVKLAGDMAASGGDIRIDASGKLSLAQASSQGDLKIAAQAVELNGKTYAGGSAEIRSAEELVNRQS
(A) 2.86
